Molecular target: mouse ACVR2A (mouse, UniProt P27038 20-135, limits assumed); further: test concentration or dose not given here
Sequence (P27038 20-135 limits assumed): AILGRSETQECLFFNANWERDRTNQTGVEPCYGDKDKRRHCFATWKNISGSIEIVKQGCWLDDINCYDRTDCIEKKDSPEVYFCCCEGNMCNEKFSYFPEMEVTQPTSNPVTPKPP
Assay: ELISA

BINDER	MEASUREMENT UNIT	optical density
367_G11 (antibody, V domains shown, Group II) VH: EVQLLESGGGLVQPGGSLRLSCAASGFTFSSYGMHWVRQAPGKGLEWVASINYNGGYTSYADSVKGRFTISRDNSKNTLYLQMNSLRAEDTAVYYCARAATWHDTHLDYWGQGTLVTVSS VL: DIQMTQSPSSLSASVGDRVTITCRASQSILTYLNWYQQKPGKAPKLLIYAATSRHSGVPSRFSGSGSGTDFTLTISSLQPEDFATYYCQQSDDSPLTFGGGTKVEIK	OD	2.67
